Target: Bromodomain-containing protein 4 (Homo sapiens)
Conditions: Compound concentration 20.0 uM
Provide the recorded ΔTm for the entries that follow.
Numbers only, in °C.

Batch request: ΔTm per item, same order as input.
1. CCN(CC)c1ccc(C2=NNC(=O)C[C@H]2C)cc1[N+](=O)[O-]
2. O=c1[nH]c(CS[C@H]2CC[C@H](O)CC2)nc2cc(OCC3CC3)cc(F)c12
3. NS(=O)(=O)OC[C@H]1C[C@@H](Nc2ccnc3cc(-c4cccc(SC(F)(F)F)c4)nn23)[C@H](O)[C@@H]1O
4. C[C@@H]1OC(=O)NN=C1c1ccc(-c2ccc(F)cc2)c(C(F)(F)F)c1
5. O=C(NCCCc1ccccc1)c1cccc(-c2cc(O)c3ncccc3c2)c1

## Output
1. 0.2
2. -1.62
3. 1.04
4. -3.44
5. -0.53

----------
Biological target: Casein kinase I isoform delta (Homo sapiens) (UniProt P48730)
Sequence (P48730 whole entry, looked up, canonical isoform): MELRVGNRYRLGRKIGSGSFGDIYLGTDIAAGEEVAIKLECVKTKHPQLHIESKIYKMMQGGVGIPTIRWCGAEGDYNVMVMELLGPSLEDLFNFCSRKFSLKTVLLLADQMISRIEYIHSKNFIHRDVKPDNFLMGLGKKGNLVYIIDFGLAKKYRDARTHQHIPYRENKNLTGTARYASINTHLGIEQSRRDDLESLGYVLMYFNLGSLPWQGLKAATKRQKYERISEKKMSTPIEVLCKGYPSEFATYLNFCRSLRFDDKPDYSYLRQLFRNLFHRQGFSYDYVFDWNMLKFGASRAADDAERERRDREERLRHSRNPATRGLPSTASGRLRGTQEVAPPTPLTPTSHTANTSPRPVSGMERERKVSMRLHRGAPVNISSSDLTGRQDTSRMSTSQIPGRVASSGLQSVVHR
Details: Compound concentration 20.0 uM
Description: Thermal Shift Assay. Domain: start/stop: M1-K294
Use 1.0 when the recorded ΔTm is no lower than -0.3 °C; use 0.0 when it is lower.

Reference set, count: 2
INSERT INTO measurements (compound, class) VALUES
  ('COc1cc2c(NC3CCN(C4CCCCC4)CC3)nc(N3CCCN(C(C)C)CC3)nc2cc1OCCCN1CCCCC1', 1.0),
  ('COc1cc2c(cc1OC)[C@H]1C[C@@H](OC(=O)[C@@H](N)C(C)C)[C@H](CC(C)C)CN1CC2', 0.0);

## Input Please indicate if the recorded ΔTm for `NC(=O)[C@H]1CCCCc2c1[nH]c1ccc(Cl)cc21` meets or exceeds -0.3 °C.
## Output 1.0

## Input Please indicate if the recorded ΔTm for `CCNC(=O)/C=C/c1cccc(Br)c1` meets or exceeds -0.3 °C.
## Output 1.0

## Input Please indicate if the recorded ΔTm for `CNCc1ccc(-c2cc3cc(F)cc(C(N)=O)c3o2)cc1` meets or exceeds -0.3 °C.
## Output 1.0

## Input Please indicate if the recorded ΔTm for `O=S(=O)(O)c1ccc2cc(/N=N/c3cc(S(=O)(=O)O)c4cccnc4c3O)ccc2c1` meets or exceeds -0.3 °C.
## Output 1.0

## Input Please indicate if the recorded ΔTm for `Cc1cc(C(=O)CN2CCC(O)CC2)c(C)n1-c1ccc(C#N)cc1` meets or exceeds -0.3 °C.
## Output 0.0

## Input Please indicate if the recorded ΔTm for `CCN(c1cc(-c2ccc(CN3CCOCC3)cc2)cc(C(=O)NCc2c(C)cc(C)[nH]c2=O)c1C)C1CCOCC1` meets or exceeds -0.3 °C.
## Output 1.0

## Input Please indicate if the recorded ΔTm for Cc1ccc2[nH]c3c(c2c1)CCCC3C(N)=O (stereo not given) meets or exceeds -0.3 °C.
## Output 1.0

## Input Please indicate if the recorded ΔTm for `C=CCn1c(N[C@@H]2C[C@H](c3ccc(OCc4ccccc4)cc3)CN(C)C2)nc2cc[nH]c2c1=O` meets or exceeds -0.3 °C.
## Output 0.0

----------
Target: Glycogen synthase kinase-3 beta (Homo sapiens)
Conditions: Compound concentration 20.0 uM
Description: Thermal Shift Assay. Domain: start/stop: M26-R383
Use Fulfilled when the recorded ΔTm is no lower than -0.4 °C; use Not fulfilled when it is lower.

Reference set, count: 3
INSERT INTO results (chemical_structure, study_system, class) VALUES
  ('CCn1ncc2c(NC3CCOCC3)c(-c3nnc(Cc4sc(C)nc4C)o3)cnc21', 'Glycogen synthase kinase-3 beta (Homo sapiens)', 'Fulfilled'),
  ('Cc1ncsc1-c1ccc([C@H](C)NC(=O)[C@@H]2C[C@@H](O)CN2C(=O)[C@@H](NC(=O)COCCCOCCNC(=O)C[C@@H]2N=C(c3ccc(Cl)cc3)c3c(sc(C)c3C)-n3c(C)nnc32)C(C)(C)C)cc1', 'Glycogen synthase kinase-3 beta (Homo sapiens)', 'Fulfilled'),
  ('CCN1C(C)(C)CC(Oc2ccc(C(=O)Nc3ccc(NC(=O)Nc4cc(C(C)(C)C)on4)cc3)nc2)CC1(C)C', 'Glycogen synthase kinase-3 beta (Homo sapiens)', 'Fulfilled');

## Input Please indicate if the recorded ΔTm for `CN(C)CCCNC(=O)c1ccc(-c2cc(O)c3ncccc3c2)cc1` meets or exceeds -0.4 °C.
## Output Fulfilled

## Input Please indicate if the recorded ΔTm for `CC/C(=C(/CC)c1ccc(O)cc1)c1ccc(O)cc1` meets or exceeds -0.4 °C.
## Output Not fulfilled

## Input Please indicate if the recorded ΔTm for `O=C(O)/C(S)=C/c1ccc(I)cc1` meets or exceeds -0.4 °C.
## Output Not fulfilled

## Input Please indicate if the recorded ΔTm for `COc1cc2c(NC3CCN(C4CCCCC4)CC3)nc(N3CCCN(C(C)C)CC3)nc2cc1OCCCN1CCCCC1` meets or exceeds -0.4 °C.
## Output Fulfilled

----------
Target: Tyrosine-protein kinase ABL1 (Homo sapiens) (UniProt P00519)
Sequence (P00519 whole entry): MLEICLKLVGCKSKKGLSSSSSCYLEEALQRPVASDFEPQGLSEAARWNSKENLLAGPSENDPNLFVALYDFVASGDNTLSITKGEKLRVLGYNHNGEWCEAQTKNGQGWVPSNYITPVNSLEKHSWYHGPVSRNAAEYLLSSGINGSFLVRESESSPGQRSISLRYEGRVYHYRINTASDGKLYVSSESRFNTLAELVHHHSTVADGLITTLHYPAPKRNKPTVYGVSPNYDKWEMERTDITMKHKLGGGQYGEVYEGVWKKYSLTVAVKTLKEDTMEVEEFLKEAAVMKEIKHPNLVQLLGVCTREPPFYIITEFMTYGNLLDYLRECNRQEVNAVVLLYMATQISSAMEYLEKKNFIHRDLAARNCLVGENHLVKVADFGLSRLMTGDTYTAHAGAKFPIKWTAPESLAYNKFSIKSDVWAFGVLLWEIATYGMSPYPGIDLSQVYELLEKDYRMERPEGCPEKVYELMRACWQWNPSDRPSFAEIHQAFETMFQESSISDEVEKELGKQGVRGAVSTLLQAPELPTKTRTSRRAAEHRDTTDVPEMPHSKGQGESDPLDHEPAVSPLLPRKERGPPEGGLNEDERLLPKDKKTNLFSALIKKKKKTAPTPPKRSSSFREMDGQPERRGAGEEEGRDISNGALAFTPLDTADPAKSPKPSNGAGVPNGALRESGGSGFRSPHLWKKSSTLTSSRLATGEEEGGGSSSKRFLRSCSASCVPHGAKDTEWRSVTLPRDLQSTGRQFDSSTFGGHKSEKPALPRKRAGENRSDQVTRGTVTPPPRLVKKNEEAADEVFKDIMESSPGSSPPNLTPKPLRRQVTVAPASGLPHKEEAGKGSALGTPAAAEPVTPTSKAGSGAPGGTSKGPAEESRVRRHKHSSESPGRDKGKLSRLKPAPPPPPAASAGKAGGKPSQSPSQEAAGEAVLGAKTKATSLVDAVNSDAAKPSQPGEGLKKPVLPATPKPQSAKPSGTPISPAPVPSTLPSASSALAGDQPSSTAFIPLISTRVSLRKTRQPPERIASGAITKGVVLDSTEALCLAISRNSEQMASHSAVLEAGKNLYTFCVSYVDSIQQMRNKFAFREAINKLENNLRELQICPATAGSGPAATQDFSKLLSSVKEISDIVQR
Settings: Compound concentration 20.0 uM
Description: Thermal Shift Assay. Domain: start/stop: S229-K512
readout_type: ΔTm
Provide the measurement as a number trailed by its unit.

See these solved cases before continuing.
INSERT INTO measurements (chemical_structure, readout_type, observed_value) VALUES
  ('NC(=O)[C@H]1CCCCc2c1[nH]c1ccc(Cl)cc21', 'ΔTm', '1.15 °C'),
  ('Cc1cc(C)c(CNC(=O)c2cc(Cl)c3c(c2C)O[C@@](C)([C@H]2CC[C@H](N(C)C)CC2)O3)c(=O)[nH]1', 'ΔTm', '0.37 °C'),
  ('C[C@H](NC(=O)CCc1nc2ccccc2c(=O)[nH]1)c1ccccc1', 'ΔTm', '0.18 °C'),
  ('CCC[C@H]1CNCc2c1[nH]c(=O)c(C#N)c2N1CCC2(CC1)CC2', 'ΔTm', '0.01 °C'),
  ('O=C(NCC1CCOCC1)c1n[nH]cc1NC(=O)c1c(F)cccc1F', 'ΔTm', '0.15 °C');

Batch request: ΔTm per item, same order as input.
1. CNCc1ccc(-c2cc3cc(F)cc(C(N)=O)c3o2)cc1
2. CS(=O)(=O)n1cc2c(n1)CN([C@H]1CO[C@H](c3cc(F)ccc3F)[C@@H](N)C1)C2

## Output
1: 0.6 °C; 2: 0.01 °C

Batch request: ΔTm per item, same order as input.
1. CCOc1ccc(Cc2cc([C@@H]3O[C@H](CO)[C@@H](O)[C@H](O)[C@H]3O)ccc2Cl)cc1
2. CS(=O)(=O)c1ccc(Oc2cc(F)cc(C#N)c2)c2c1[C@H](O)[C@H](F)[C@@H]2F

## Output
0.64 °C
0.05 °C

----------
Biological target: Tyrosine-protein kinase ABL1 (Homo sapiens)
Details: Compound concentration 20.0 uM
Use satisfied when the recorded ΔTm is no lower than 0.5 °C; use not satisfied when it is lower.

Reference set, count: 5
INSERT INTO assay_data (molecule, study_system, class) VALUES
  ('COc1nc(Nc2cc(S(C)(=O)=O)ccc2N[C@@H](c2cccc3c2OC(F)(F)O3)c2ncccc2Cl)nc(N2CCNCC2)n1', 'Tyrosine-protein kinase ABL1 (Homo sapiens)', 'not satisfied'),
  ('Cc1cc(/N=N/c2ccc(S(=O)(=O)NC3CCCC3)cc2)c(N)cc1O', 'Tyrosine-protein kinase ABL1 (Homo sapiens)', 'not satisfied'),
  ('O=C(O)Cc1ccc(Cc2cc(-c3cccc(Cl)c3)nc(C(F)(F)F)c2)cc1', 'Tyrosine-protein kinase ABL1 (Homo sapiens)', 'satisfied'),
  ('OC[C@H]1O[C@@H](c2ccc(Cl)c(Cc3ccc(OCCOC4CC4)cc3)c2)[C@H](O)[C@@H](O)[C@@H]1O', 'Tyrosine-protein kinase ABL1 (Homo sapiens)', 'satisfied'),
  ('NC(=S)c1cccc(-c2cn(C3CCN(S(=O)(=O)C(F)(F)F)CC3)c3cc(CNC(=O)C4CNC4)ccc23)c1', 'Tyrosine-protein kinase ABL1 (Homo sapiens)', 'satisfied');

## Input Please indicate if the recorded ΔTm for `CC(C)N(C[C@H]1O[C@@H](n2cnc3c(N)ncnc32)[C@H](O)[C@@H]1O)[C@H]1C[C@@H](CCc2nc3cc(C(C)(C)C)ccc3[nH]2)C1` meets or exceeds 0.5 °C.
## Output satisfied

## Input Please indicate if the recorded ΔTm for `COC(=O)c1ccc(CN2CCC(O)(Cn3cnc4c(-c5ccc(CN)cc5)n(C)nc4c3=O)CC2)c(Cl)c1` meets or exceeds 0.5 °C.
## Output not satisfied

## Input Please indicate if the recorded ΔTm for `COc1ccc(Cc2nc(O)c3c(C)nc([C@@H](CCCc4ccccc4)[C@@H](C)O)n3n2)cc1OC` meets or exceeds 0.5 °C.
## Output not satisfied

## Input Please indicate if the recorded ΔTm for `Nc1ncnc2c1ncn2[C@@H]1O[C@H](C(=O)N2CCN(CC(=O)Nc3cccc4c3CNC4=O)CC2)[C@@H](O)[C@H]1O` meets or exceeds 0.5 °C.
## Output not satisfied

## Input Please indicate if the recorded ΔTm for `COc1c(CN)cc(CN)cc1OCCCN1Cc2ccccc2C1` meets or exceeds 0.5 °C.
## Output not satisfied

## Input Please indicate if the recorded ΔTm for `N[C@](CCCCB(O)O)(CCN1CCCCC1)C(=O)O` meets or exceeds 0.5 °C.
## Output not satisfied

## Input Please indicate if the recorded ΔTm for `COc1nc(N)nc(Nc2cc(S(N)(=O)=O)ccc2N[C@@H](c2cccc3c2OC(F)(F)O3)c2ncccc2Cl)n1` meets or exceeds 0.5 °C.
## Output satisfied

## Input Please indicate if the recorded ΔTm for `Cc1cc(-n2cccc2)c(S(C)(=O)=O)cc1C(=O)N=C(N)N` meets or exceeds 0.5 °C.
## Output satisfied

## Input Please indicate if the recorded ΔTm for `COc1ccc(C(=O)C2CCN(CC(=O)N(Cc3nc4c(c(=O)[nH]3)COCC4)CC3CC3)CC2)cc1` meets or exceeds 0.5 °C.
## Output satisfied

## Input Please indicate if the recorded ΔTm for `O=C(CCCCCCNC(=O)c1cnc(N(c2ccccc2)c2ccccc2)nc1)NO` meets or exceeds 0.5 °C.
## Output satisfied
